test: Pharmacokinetics assay in rats after intragastrical administration; type: in vivo; conditions: both sexes, Sprague-Dawley, rat, plasma, po, 2 mg/kg, heading: Plasma concentration Cmax, SD rats
property.name: Cmax

1. Cc1cccc(-c2nn(C3CCC3)cc2-c2ccnc(-c3ccc(S(C)(=O)=O)cc3)c2)n1 1.83 µg/mL

* * *

target: p38α kinase (Homo sapiens (Human))
Sequence (Q16539 whole entry): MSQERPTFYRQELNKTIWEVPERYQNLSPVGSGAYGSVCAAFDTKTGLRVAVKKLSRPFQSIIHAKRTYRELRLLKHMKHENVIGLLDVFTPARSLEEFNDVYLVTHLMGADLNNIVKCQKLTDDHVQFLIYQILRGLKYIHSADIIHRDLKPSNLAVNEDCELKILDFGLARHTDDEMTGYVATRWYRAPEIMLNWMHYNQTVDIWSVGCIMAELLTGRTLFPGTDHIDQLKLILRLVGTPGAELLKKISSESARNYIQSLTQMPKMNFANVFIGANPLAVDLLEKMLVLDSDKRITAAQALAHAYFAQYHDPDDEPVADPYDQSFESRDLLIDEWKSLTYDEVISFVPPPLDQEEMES
property.name: IC50 (nM)

1. Cc1cccc(-c2nn(C3CCC3)cc2-c2ccnc(-c3ccc(S(C)(=O)=O)cc3)c2)n1 2200

* * *

assay: Pharmacokinetics assay in rats after intragastrical administration; type: in vivo; settings: both sexes, Sprague-Dawley, rat, plasma, po, SD rats, 2.0 mg/kg, read-out: Clearance CLz/F
Item-by-item account of CL/F

compound	CL/F (mL/min/kg)
Cc1cccc(-c2nn(C3CCC3)cc2-c2ccnc(-c3ccc(S(C)(=O)=O)cc3)c2)n1 [Example 1]	11.9
Cc1cccc(-c2nn(C3CC3)cc2-c2ccnc(-c3ccc(S(C)(=O)=O)cc3)c2)n1 [Example 2]	5.33

* * *

Item-by-item account of AUC
assay: Pharmacokinetics assay in rats after intragastrical administration; format: in vivo; settings: both sexes, Sprague-Dawley, rat, plasma, po, SD rats, 2.0 mg/kg, read-out: Area under curve AUC
property.name: AUC (µg·h/mL)

1) Cc1cccc(-c2nn(C3CCC3)cc2-c2ccnc(-c3ccc(S(C)(=O)=O)cc3)c2)n1 3.27
2) Cc1cccc(-c2nn(C3CC3)cc2-c2ccnc(-c3ccc(S(C)(=O)=O)cc3)c2)n1 8.06

* * *

System: NIH3T3 cell
Assay: Inhibition of NIH3T3 cell proliferation (CellTiter-Glo)
Format: cell-based
Conditions: Mus musculus; NIH3T3, 72 hours, 0.5% FBS
Description: The inhibition effect of the compounds of the present invention on NIH3T3 cell proliferation was determined by the following in vitro test. The inhibition effect of the compounds of the present invention on NIH3T3 cell proliferation was determined by the following experimental method: […]
property.name: IC50 (µM)

1) Cc1cccc(-c2nn(C3CCC3)cc2-c2ccnc(-c3ccc(S(C)(=O)=O)cc3)c2)n1 0.088
2) Cc1cccc(-c2nn(C3CC3)cc2-c2ccnc(-c3ccc(S(C)(=O)=O)cc3)c2)n1 0.194
3) Cc1cccc(-c2nn(C3CCCC3)cc2-c2ccnc(-c3ccc(S(C)(=O)=O)cc3)c2)n1 0.366
4) Cc1cccc(-c2nn([C@@H]3CCN(S(C)(=O)=O)C3)cc2-c2ccnc(-c3ccc(S(C)(=O)=O)cc3)c2)n1 0.49

* * *

target: recombinant human VEGFR2 (Homo sapiens (Human), UniProt P35968); assay: Inhibition of VEGFR2 kinase activity (Z'-LYTE kit); settings: ATP 50 μM, 25° C. 2 hours
Sequence (P35968 20-1356): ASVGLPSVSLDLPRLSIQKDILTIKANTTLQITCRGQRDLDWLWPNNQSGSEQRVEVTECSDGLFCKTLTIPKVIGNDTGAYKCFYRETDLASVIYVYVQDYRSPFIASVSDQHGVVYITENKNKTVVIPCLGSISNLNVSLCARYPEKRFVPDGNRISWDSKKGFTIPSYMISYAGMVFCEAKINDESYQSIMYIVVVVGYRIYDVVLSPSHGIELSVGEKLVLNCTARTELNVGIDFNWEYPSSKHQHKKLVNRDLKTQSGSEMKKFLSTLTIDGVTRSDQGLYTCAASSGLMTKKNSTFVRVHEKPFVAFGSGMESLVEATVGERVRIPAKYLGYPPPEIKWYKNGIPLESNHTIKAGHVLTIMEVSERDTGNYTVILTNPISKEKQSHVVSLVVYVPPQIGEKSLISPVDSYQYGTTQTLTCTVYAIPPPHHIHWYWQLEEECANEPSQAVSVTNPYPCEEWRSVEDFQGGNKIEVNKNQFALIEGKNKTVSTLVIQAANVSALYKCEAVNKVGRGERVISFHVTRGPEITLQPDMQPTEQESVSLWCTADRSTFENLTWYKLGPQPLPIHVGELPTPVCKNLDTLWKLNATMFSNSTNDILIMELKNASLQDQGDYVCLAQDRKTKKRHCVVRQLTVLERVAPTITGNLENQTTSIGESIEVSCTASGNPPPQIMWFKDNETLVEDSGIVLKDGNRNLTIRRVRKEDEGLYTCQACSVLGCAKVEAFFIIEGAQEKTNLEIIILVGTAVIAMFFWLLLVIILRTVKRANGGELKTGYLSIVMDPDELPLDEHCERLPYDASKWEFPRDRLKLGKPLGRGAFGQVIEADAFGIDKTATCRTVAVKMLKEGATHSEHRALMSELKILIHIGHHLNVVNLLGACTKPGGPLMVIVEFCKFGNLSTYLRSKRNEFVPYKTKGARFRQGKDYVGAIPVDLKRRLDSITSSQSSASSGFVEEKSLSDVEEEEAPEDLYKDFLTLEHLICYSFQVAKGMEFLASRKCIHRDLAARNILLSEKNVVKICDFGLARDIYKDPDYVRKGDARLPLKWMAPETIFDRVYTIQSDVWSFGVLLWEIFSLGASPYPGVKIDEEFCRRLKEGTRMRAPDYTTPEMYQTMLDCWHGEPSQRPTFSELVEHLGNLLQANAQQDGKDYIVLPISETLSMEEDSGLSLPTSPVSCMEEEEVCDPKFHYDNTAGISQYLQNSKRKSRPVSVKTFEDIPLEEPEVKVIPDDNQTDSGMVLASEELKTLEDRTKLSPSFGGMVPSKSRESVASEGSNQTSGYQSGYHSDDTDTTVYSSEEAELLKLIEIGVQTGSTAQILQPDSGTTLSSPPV
pIC50: −log10 of the molar value.
property.name: pIC50

compound	measured.value
Cc1cccc(-c2nn(C3CCC3)cc2-c2ccnc(-c3ccc(S(C)(=O)=O)cc3)c2)n1 [Example 1]	5.60
Cc1cccc(-c2nn(C3CC3)cc2-c2ccnc(-c3ccc(S(C)(=O)=O)cc3)c2)n1 [Example 2]	5.38
